- Tested on: protein kinase C (PKC)
- Assay: Inhibition of protein kinase C (PKC) (in cells), MARCKS phosphorylation in 3T3 fibroblasts
- Format: cell-based
- Assay setup: Fibroblast, TPA 100 nM, phosphorylation of 80 kD MARCKS protein, 37° C., read-out: Test Procedure C: IC50, inhibition of PKC in cells
Listing: pIC50 of selected compounds
As a rule, pIC50 stands for the negative log10 of the concentration, concentration in M.

Example results:
| Structure | System name | pIC50 |
| --- | --- | --- |
| Cc1cc(C(=O)N[C@@H]2CNCCC[C@H]2OC(=O)c2ccc(C(=O)c3c(O)ccc(F)c3F)cc2)cc(C)c1O | protein kinase C (PKC) | 6.10 |
| COc1cc(O)c(C(=O)c2ccc(C(=O)O[C@@H]3CCCNC[C@H]3NC(=O)c3ccc(O)cc3)cc2)c(F)c1 | protein kinase C (PKC) | 5.70 |
| COc1ccc(O)c(C(=O)c2ccc(C(=O)O[C@@H]3CCCNC[C@H]3NC(=O)c3cc(C)c(O)c(C)c3)cc2)c1F | protein kinase C (PKC) | 6.47 |

Proceeding to the next compound to report its pIC50.
Query string: Return reported pIC50; argument: O=C(N[C@@H]1CNCCC[C@H]1OC(=O)c1ccc(C(=O)c2cc3ccccc3cc2O)cc1)c1ccc(O)cc1
Result string: 5.57

====

- System name: cAMP-dependent protein kinase (PKA)
- Assay: Inhibition of cAMP-dependent protein kinase (PKA)
- Assay type: biochemical
- Assay setup: partially purified PKA from swine brain; histone H1 substrate; 10 μM ATP; 2 μM cyclic AMP; pH 7.4; 32° C., 2 minutes; read-out: Test Procedure B: IC50, inhibition of PKA
Listing: IC50 of selected molecules
Please answer in the form of a number followed by its unit of measurement.

Example results:
| Molecule | IC50 |
| --- | --- |
| Cc1cc(C(=O)N[C@@H]2CNCCC[C@H]2OC(=O)c2ccc(C(=O)c3c(O)ccc(F)c3F)cc2)cc(C)c1O [Example 25] | 14 nM |
| COc1cc(O)c(C(=O)c2ccc(C(=O)O[C@@H]3CCCNC[C@H]3NC(=O)c3ccc(O)cc3)cc2)c(F)c1 [Example 57] | 5 nM |
| O=C(N[C@@H]1CNCCC[C@H]1OC(=O)c1ccc(C(=O)c2cc3ccccc3cc2O)cc1)c1ccc(O)cc1 [Example 60] | 9 nM |

Proceeding to the next molecule to report its IC50.
Query string: Return reported IC50; argument: Cc1cc(C(=O)N[C@@H]2CNCCC[C@H]2OC(=O)c2ccc(C(=O)c3c(O)ccc4c3OCCO4)cc2)cc(C)c1O [Example 41]
Result string: 13 nM

====

- System name: protein kinase C (PKC)
- Assay: Inhibition of protein kinase C (PKC) (isolated enzyme)
- Assay type: biochemical
- Assay setup: partially purified PKC from swine brain; histone H1 substrate; 10 μM ATP; pH 7.4; 32° C., 2 minutes; read-out: Test Procedure A: IC50, inhibition of PKC (isolated enzyme)
Measured attribute: IC50 (nM)
Hi! Could you send only the number? It should be in nM, unit omitted.

| Structure | Measured attribute | Unit abbrev | Reported measurement |
| --- | --- | --- | --- |
| O=C(N[C@@H]1CNCCC[C@H]1OC(=O)c1ccc(C(=O)c2cc3ccccc3cc2O)cc1)c1ccc(O)cc1 | IC50 | nM | 1200 |
| COc1cc(O)c(C(=O)c2ccc(C(=O)O[C@@H]3CCCNC[C@H]3NC(=O)c3ccc(O)cc3)cc2)c(F)c1 | IC50 | nM | 867 |
| Cc1cc(C(=O)N[C@@H]2CNCCC[C@H]2OC(=O)c2ccc(C(=O)c3c(O)ccc(F)c3F)cc2)cc(C)c1O | IC50 | nM | 40 |

Proceeding to the next compound to report its IC50.
Query string: So what IC50 did Cc1cc(C(=O)N[C@@H]2CNCCC[C@H]2OC(=O)c2ccc(C(=O)c3c(O)ccc4c3OCCO4)cc2)cc(C)c1O get with protein kinase C (PKC)?
Result string: 40
